- assayed-target: METRNL; also: reference of the scale not given here
- test: pooled miR-30 sensor sort-seq; sequence = guide strand
- assay-setup: shRNA
Quick rule: sensor-assay potency score (higher = more potent) of at least -0.8 means Criterion met, below that means Criterion not met.

Here are 5 sequences together with their reported answers.
record-sequence	category
TACTGGAAGCCTGTGGTCCTCC	Criterion met
TGAAGCGTGGGGCACAGCCGAG	Criterion not met
TAACGATGAGAGCACCTGTTGG	Criterion met
TGAAGGACCTGATGCACACGGT	Criterion not met
TTAGTTTGCATTTTACAGCATT	Criterion not met

Could you please find out whether TGGAAGTCCTTGAAGCGTGGGG has sensor-assay potency score (higher = more potent) that meets -0.8 or exceeds it?
Criterion met

Could you please find out whether ATAGAGTCTGCTCACGCGCAGG has sensor-assay potency score (higher = more potent) that meets -0.8 or exceeds it?
Criterion not met
